Values were extracted from ChEMBL document CHEMBL5291721.

TEST TARGET: UniProt P32238
Sequence (P32238 whole entry): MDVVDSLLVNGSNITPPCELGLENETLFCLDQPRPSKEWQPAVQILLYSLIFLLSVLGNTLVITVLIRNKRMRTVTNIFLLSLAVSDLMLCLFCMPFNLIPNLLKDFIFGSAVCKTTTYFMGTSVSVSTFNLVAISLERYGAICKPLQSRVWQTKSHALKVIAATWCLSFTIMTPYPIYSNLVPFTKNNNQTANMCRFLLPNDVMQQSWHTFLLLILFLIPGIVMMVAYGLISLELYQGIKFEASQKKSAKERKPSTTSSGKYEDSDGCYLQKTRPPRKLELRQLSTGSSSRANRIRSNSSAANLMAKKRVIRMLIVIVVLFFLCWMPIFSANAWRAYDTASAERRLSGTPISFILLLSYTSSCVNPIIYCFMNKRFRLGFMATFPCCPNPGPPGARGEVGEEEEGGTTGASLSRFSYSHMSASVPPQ
READOUT TYPE: AC50

For every listed record, write down its AC50.
1. COCC1=C(C(=O)O)N2C(=O)[C@@H](NC(=O)/C(=N\OC)c3csc(N)n3)[C@H]2SC1
2. C[C@]12C=CC(=O)N[C@@H]1CC[C@@H]1[C@@H]2CC[C@]2(C)[C@@H](C(=O)Nc3cc(C(F)(F)F)ccc3C(F)(F)F)CC[C@@H]12 [DUTASTERIDE]
3. CC(=O)[C@@]1(O)CC[C@H]2[C@@H]3C=C(Cl)C4=CC(=O)[C@@H]5C[C@@H]5[C@]4(C)[C@H]3CC[C@@]21C
4. C[C@H](Cc1ccc(O)c(O)c1)[C@@H](C)Cc1ccc(O)c(O)c1

a:
1: > 30 µM; 2: > 10 µM; 3: > 10 µM; 4: > 10 µM

# batch size: 3; output AC50 per entry
1. CC(C)COCC(CN(Cc1ccccc1)c1ccccc1)N1CCCC1 (configuration not stated)
2. CC(C)c1nc(N(C)S(C)(=O)=O)nc(-c2ccc(F)cc2)c1/C=C/[C@@H](O)C[C@@H](O)CC(=O)O
3. C/N=C(\NC)NCc1ccccc1

a:
1: 23.2 µM; 2: > 30 µM; 3: > 30 µM

###

Field: AC50. Provide a value for each of the molecules that follow.
TEST TARGET: Melanocortin receptor 3 (Homo sapiens); further: assay procedure not described here
Sequence (P41968 whole entry): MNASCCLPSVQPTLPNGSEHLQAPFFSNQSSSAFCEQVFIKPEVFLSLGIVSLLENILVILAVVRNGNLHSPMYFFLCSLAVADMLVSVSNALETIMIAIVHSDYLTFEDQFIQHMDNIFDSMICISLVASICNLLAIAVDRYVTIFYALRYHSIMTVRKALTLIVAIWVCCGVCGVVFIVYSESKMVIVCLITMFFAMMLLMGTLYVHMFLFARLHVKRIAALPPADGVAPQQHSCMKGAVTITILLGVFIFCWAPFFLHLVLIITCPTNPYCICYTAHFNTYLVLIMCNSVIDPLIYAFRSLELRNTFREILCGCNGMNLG

# count of solved cases: 5
[
  {
    "MOLECULE": "OC1(c2ccc(Cl)cc2)c2ccccc2C2=NCCN21 (centres undefined)",
    "AC50": "> 30 µM"
  },
  {
    "MOLECULE": "Cc1cc2cc3c(C)cc(=O)oc3c(C)c2o1",
    "AC50": "> 10 µM"
  },
  {
    "MOLECULE": "O=C1C(CC[S+]([O-])c2ccccc2)C(=O)N(c2ccccc2)N1c1ccccc1 (centres undefined)",
    "AC50": "> 10 µM"
  },
  {
    "MOLECULE": "COc1cc2ncnc(Nc3ccc(F)c(Cl)c3)c2cc1NC(=O)/C=C/CN1CCCCC1 [DACOMITINIB ANHYDROUS]",
    "AC50": "27 µM"
  },
  {
    "MOLECULE": "Cc1onc(-c2ccccc2)c1-c1ccc(S(N)(=O)=O)cc1",
    "AC50": "> 30 µM"
  }
]

Quick request: AC50 for each listed item, please.
1. CC(C(=O)O)c1ccc(CC2CCCC2=O)cc1 (centres undefined)
2. CC(C)COCC(CN(Cc1ccccc1)c1ccccc1)N1CCCC1 (centres undefined)
3. C[C@]12CC[C@@H]3c4ccc(O)cc4C[C@@H](CCCCCCCCC[S+]([O-])CCCC(F)(F)C(F)(F)F)[C@H]3[C@@H]1CC[C@@H]2O (some centres undefined)
4. Clc1ccc2c(N3CCN(CCCN4CCN(c5ccnc6cc(Cl)ccc56)CC4)CC3)ccnc2c1

a:
1. > 30 µM
2. 12.5 µM
3. > 30 µM
4. > 30 µM
